# credit: ChEMBL document CHEMBL3272288

# Tested on: Rattus norvegicus
# assayInfo: Antipsychotic activity in Long-Evens rat assessed as reduction in methamphetamine-induced hyperactivity at 5 mg/kg, po
# Format: functional
Label rule, in plain words: inhibition in vivo at 5 mg/kg of 50% and up is rule met, under 50% is rule not met.

Check out these entries, answers already filled in.
input: Determine whether measured inhibition in vivo at 5 mg/kg meets or exceeds 50% for CCCCCc1cc(O)c2c(c1)OC(C)(C)[C@@H]1CCC(C)=C[C@@H]21 [DRONABINOL]
output: rule not met

input: Same for CC(CCCc1ccc(F)cc1)c1cc(O)c2c(c1)OC(C)(C)c1ccncc1-2 (stereo not given)
output: rule not met

input: Same for CC(CCCc1ccc(F)cc1)c1cc(O)c2c(c1)OC(C)(C)c1cc[n+]([O-])cc1-2 (stereo not given)
output: rule not met

Continuing:
input: Determine whether measured inhibition in vivo at 5 mg/kg meets or exceeds 50% for CCCCCC(C)C(C)c1cc(OC(C)=O)c2c(c1)OC(C)(C)c1ccncc1-2 (stereo not given)
output: rule not met

input: Same for CCCCCC(C)C(C)c1cc(OC(=O)OCC)c2c(c1)OC(C)(C)c1ccncc1-2 (stereo not given)
output: rule met
